molecular target: human NCX1 (Homo sapiens); construct: expressed in transfected cells; assay: NCX1 inhibition, reverse mode (Ca2+ influx into cells), FLIPR Fluo-4 assay; format: cell-based; conditions: inhibition of NCX1 in reverse mode (Ca2+ influx into cells); read-out: NCX1rv IC50
pIC50: −log10 of the molar value.
endpoint: pIC50

I: O=C(NCc1cnc(Oc2ccc3c(c2)CCC(c2ccccc2)O3)s1)c1ccno1 (stereo not drawn) [compound 48]
II: NCC1CCCN1C(=O)c1cnc(Oc2ccc3c(c2)CC[C@@H](c2ccccc2)O3)s1 (stereo partly drawn) [compound 291]
Given the two records I and II , choose the one whose pIC50 value is lower. Please identify the chosen entry by its label.
II
(II: 6.40, I: 7.00)

P: N[C@H]1C[C@@H]1NC(=O)c1cnc(Oc2ccc3c(c2)CC[C@@H](c2ccccc2)O3)s1 [compound 256]
Q: CC(C)(NC(=O)c1cnc(Oc2ccc3c(c2)CC[C@@H](c2ccccc2)O3)s1)C(=O)O [compound 193]
Returns: the argument ( P or Q ) having the larger pIC50. Let me know the label of the one you choose.
P

A: NCC(=O)NCc1cnc(Oc2ccc3c(c2)CC[C@@H](c2ccccc2)O3)s1 [compound 302]
B: O=C(NCc1ccnc(N2CCOCC2)c1)c1cnc(Oc2ccc3c(c2)CCC(c2ccccc2)O3)s1 (stereo not drawn) [compound 28]
Between A and B , which one shows the smaller pIC50 number? Return value: the label identifying the chosen record.
A
(A: 6.40, B: 6.70)

* * *

target: human NCX1 (Homo sapiens, UniProt P32418); construct: expressed in transfected cells; assay: NCX1 inhibition, reverse mode (Ca2+ influx into cells), FLIPR Fluo-4 assay; assay type: cell-based; details: inhibition of NCX1 in reverse mode (Ca2+ influx into cells); read-out: NCX1rv IC50
pIC50: −log10 of the molar value. Where a name gives a salt, the structure may show the parent alone.
endpoint: pIC50

molecule	testedOn	endpoint	numericValue
CC[C@@H](C)[C@H](CO)NC(=O)c1cnc(Oc2ccc3c(c2)CC[C@@H](c2ccccc2)O3)s1 [compound 209]	human NCX1 (Homo sapiens, UniProt P32418)	pIC50	6.52
CC(NC(=O)c1cnc(Oc2ccc3c(c2)CCC(c2cccc(F)c2)O3)s1)c1ccncc1 (stereo not drawn) [Example 13, hydrochloride]	human NCX1 (Homo sapiens, UniProt P32418)	pIC50	6.52
CCn1cc(S(=O)(=O)NCc2cnc(Oc3ccc4c(c3)CCC(c3ccccc3)O4)s2)cn1 (stereo not drawn) [compound 132]	human NCX1 (Homo sapiens, UniProt P32418)	pIC50	6.52

* * *

molecular target: human NCX1 (Homo sapiens); construct: expressed in transfected cells; test: NCX1 inhibition, reverse mode (Ca2+ influx into cells), FLIPR Fluo-4 assay; format: cell-based; settings: inhibition of NCX1 in reverse mode (Ca2+ influx into cells); read-out: NCX1rv IC50
Where a name gives a salt, the structure may show the parent alone.
endpoint: IC50 (nM)

molecule	IC50 (nM)
Cc1ncoc1C(=O)NCc1cnc(Oc2ccc3c(c2)CCC(c2ccccc2)O3)s1 (centres unmarked) [compound 69]	500
O=C(Cc1cccnc1)NCc1cnc(Oc2ccc3c(c2)CCC(c2ccccc2)O3)s1 (centres unmarked) [compound 16, hydrochloride]	100
CN(CC(=O)O)C(=O)c1cnc(Oc2ccc3c(c2)CC[C@@H](c2ccccc2)O3)s1 [compound 190]	900
CN(C)c1cc(CNC(=O)c2cnc(Oc3ccc4c(c3)CCC(c3ccccc3)O4)s2)ccn1 (centres unmarked) [compound 29]	100
Cc1ccccc1C1CCc2cc(Oc3ncc(C(=O)NCc4ccnc(Cl)c4)s3)ccc2O1 (centres unmarked) [compound 215]	1000
CCOC(=O)C(CNC(=O)c1cnc(Oc2ccc3c(c2)CC[C@@H](c2ccccc2)O3)s1)CC(C)C (some centres unmarked) [compound 230]	1500
CC(C)CCNCc1cnc(Oc2ccc3c(c2)CCC(c2ccccc2)O3)s1 (centres unmarked) [compound 115]	600
O=C(NCc1nnc2ccccn12)c1cnc(Oc2ccc3c(c2)CCC(c2ccccc2)O3)s1 (centres unmarked) [compound 35]	600

1: O=C(c1cnc(Oc2ccc3c(c2)CC[C@@H](c2ccccc2)O3)s1)N1CC[C@H]2CNC[C@H]21 [compound 283, hydrochloride]
2: COC(=O)[C@@H](C)NC(=O)c1cnc(Oc2ccc3c(c2)CC[C@@H](c2ccccc2)O3)s1 [compound 184]
3: O=C(NCc1cnc(Oc2ccc3c(c2)CCC(c2ccccc2)O3)s1)[C@@H]1CCCN1 (some centres unmarked) [compound 341, hydrochloride]
4: O=C(N[C@@H](Cc1ccccc1)C(=O)O)c1cnc(Oc2ccc3c(c2)CCC(c2cccnc2)O3)s1 (some centres unmarked) [compound 271]
Rank the 4 molecules: largest IC50 first, smallest last. To answer, write out the labels according to the requested order.
4, 3, 1, 2
(4: 12100 nM, 3: 900 nM, 1: 600 nM, 2: 400 nM)

A: FC1(F)CCN(Cc2cnc(Oc3ccc4c(c3)CCC(c3ccccc3)O4)s2)CC1 (centres unmarked) [compound 109]
B: O=C(NCc1cnc(Oc2ccc3c(c2)CCC(c2ccccc2)O3)s1)c1ccnc(O)c1 (centres unmarked) [compound 88]
C: c1ccc(C2CCc3cc(Oc4ncc(CNCc5ccncn5)s4)ccc3O2)cc1 (centres unmarked) [compound 161]
D: COC(=O)[C@@H]1CC(C)(C)CN1C(=O)c1cnc(Oc2ccc3c(c2)CC[C@@H](c2ccccc2)O3)s1 [compound 223]
// ascending sort on recorded IC50 Answer with the labels in sequence, matching the requested order.
C, A, D, B
(C: 300 nM, A: 700 nM, D: 1300 nM, B: 5000 nM)

a: Cn1nccc1CNC(=O)c1cnc(Oc2ccc3c(c2)CCC(c2ccccc2)O3)s1 (centres unmarked) [compound 5]
b: COCCNCc1cnc(Oc2ccc3c(c2)CCC(c2ccccc2)O3)s1 (centres unmarked) [compound 114]
c: O=C(NCc1cnc(Oc2ccc3c(c2)CCC(c2ccccc2)O3)s1)c1ccnc(N2CCCCC2)c1 (centres unmarked) [compound 75]
Hi! Can you put these in order of IC50, lowest number first? Arrange the labels as the request states and list them.
b, a, c
(b: 200 nM, a: 400 nM, c: 9800 nM)

* * *

molecular target: human NCX1 (Homo sapiens, UniProt P32418); construct: expressed in transfected cells; assay: NCX1 inhibition, reverse mode (Ca2+ influx into cells), FLIPR Fluo-4 assay; type: cell-based; settings: inhibition of NCX1 in reverse mode (Ca2+ influx into cells); read-out: NCX1rv IC50
pIC50: −log10 of the molar value.
endpoint: pIC50

Please review the following examples before continuing.
compound	testedOn	pIC50
Cc1noc(C)c1CC(=O)NCc1cnc(Oc2ccc3c(c2)CCC(c2ccccc2)O3)s1 (stereo not shown) [compound 77]	human NCX1 (Homo sapiens, UniProt P32418)	6.40
Cc1c(C(C)NCc2cnc(Oc3ccc4c(c3)CCC(c3ccccc3)O4)s2)cnn1C (stereo not shown) [compound 148]	human NCX1 (Homo sapiens, UniProt P32418)	6.40

A: CCn1cc(CNCc2cnc(Oc3ccc4c(c3)CCC(c3ccccc3)O4)s2)c(C)n1 (stereo not shown) [compound 139]
B: c1ccc(C2CCc3cc(Oc4ncc(CNCCn5cccn5)s4)ccc3O2)cc1 (stereo not shown) [compound 149]
Please tell me which of the two, A or B , has the higher reported pIC50 value. # reply format: chosen label
B
(B: 6.52, A: 6.30)
